biological target: pooled human IgG (human IgG1,2,3 and 4)
measurement_label: Enzyme Activity Endpoint Assay: IgG
A bare number is not enough; add the unit after it.

// field: Enzyme Activity Endpoint Assay: IgG; key: PRT-460 (protein) MVTSVWTKGVTPPTDFIKGEDVFHAPYKAGQGWYDITKTFNGKDDLLCGAATAGNMLHWWFDQNKDQIERYLKEHPEKQKINFNGEQMFDVKEAIDTKDSQTDSKLFEYFKEKAFPYLSTKHLGVFPDHVLDMFINGYRLSLTNHGPTPVKEGSKDPRGGIFDAVFTRGDQSKLLTSRHDLKNKTLKEISDLIKQELTEGKALGLSHTYANVRINHVINLWGADFDSEGNLKAIYVTDSDSNASIGMKKYFVGVNSAGKVAISAKEIKEDNIGAQVLGLFTLSTGQDIWNQTNLEHHHHHH ; value = 26 ng/µL
